Property: MIC; scope: individual compounds
System: Acinetobacter baumannii
Assay: Antibacterial activity against Acinetobacter baumannii 5444 assessed as reduction in bacterial growth incubated for 18 to 24 hrs by broth microdilution method
Assay type: functional
Details: time 18-24 hrs
Peptide text beside a SMILES is read from it. * marks the point of attachment. Lauroyl = CCCCCCCCCCCC(=O)*; Octanoyl = CCCCCCCC(=O)*

{"COMPOUND": "CN[C@@H]1[C@H](O[C@H]2[C@H](O[C@H]3[C@H](O)[C@@H](O)[C@H](N=C(N)N)[C@@H](O)[C@@H]3N=C(N)N)O[C@@H](C)[C@]2(O)C=O)O[C@@H](CO)[C@H](O)[C@H]1O [STREPTOMYCIN]", "MIC (µM)": 128}
{"COMPOUND": "CCCCCCCCCCCC(=O)N[C@@H](CCCCN)C(=O)N[C@@H](CCCCN)C(=O)N[C@@H](Cc1c[nH]c2ccccc12)C(=O)N[C@@H](Cc1c[nH]c2ccccc12)C(N)=O (Lauroyl-KKWW-NH2)", "MIC (µM)": 16}
{"COMPOUND": "CC(=O)OCC1=C(C(=O)O)N2C(=O)[C@@H](NC(=O)Cc3cccs3)[C@H]2SC1 [CEPHALOTHIN]", "MIC (µM)": 128}
{"COMPOUND": "CO[C@H]1/C=C/O[C@@]2(C)Oc3c(C)c(O)c4c(O)c(c(/C=N/N5CCN(C)CC5)c(O)c4c3C2=O)NC(=O)/C(C)=C\\C=C\\[C@H](C)[C@H](O)[C@@H](C)[C@@H](O)[C@@H](C)[C@H](OC(C)=O)[C@@H]1C [RIFAMPIN]", "MIC (µM)": 16}
{"COMPOUND": "CCCCCCCC(=O)NCCCC[C@H](NC(=O)CCCCCCC)C(=O)N[C@@H](CCCCN)C(=O)N[C@@H](CCCCN)C(=O)N[C@@H](Cc1c[nH]c2ccccc12)C(=O)N[C@@H](Cc1c[nH]c2ccccc12)C(N)=O (Octanoyl-K(Octanoyl)KKWW-NH2)", "MIC (µM)": 16}
{"COMPOUND": "COc1cccc(OC)c1C(=O)N[C@@H]1C(=O)N2[C@@H]1SC(C)(C)[C@@H]2C(=O)O [METHICILLIN]", "MIC (µM)": 128}
